System: M19-MEL
assay_protocol: NCI tumour cell line growth inhibition, 48 h
Calls of active or inactive are those of the source. Cut-off read from the data, not from the text of the source: active = GI50 up to about 1.1 µM and inactive = higher.
outcome_measure: GI50

The examples below pair each entry with its known result.
[[record]]
compound = "COc1ccc(/C=C(\\NC(=O)c2ccccc2)c2nc3ccccc3[nH]2)cc1"
outcome_measure = "GI50"
value_measured = "35.6 µM (inactive)"

[[record]]
compound = "COC(=O)C1=C(O)c2cc(OC)c(OC)cc2C(c2ccc(OC)c(OC)c2)C1 (stereo unspecified)"
outcome_measure = "GI50"
value_measured = "> 100 µM (inactive)"

[[record]]
compound = "CC(C)(C)C(=O)CC(=O)C(C)(C)C.CC(C)(C)C(=O)CC(=O)C(C)(C)C.[SiH4]"
outcome_measure = "GI50"
value_measured = "1.86 µM (inactive)"


Below is a list of compounds. For each, state its recorded GI50.
1. O=C(NC(c1ccccc1)C(O)C(=O)OCc1ccc2c(c1)C(=O)c1ccccc1C2=O)c1ccccc1 (stereo unspecified)
2. N#Cc1nc(Nc2ccc([N+](=O)[O-])cc2)sc1N
3. C=C(C)C1CCC2(C)CC1c1c(c(C)cc3c1[nH]c1ccccc13)O2 (stereo unspecified)

1. 53.6 µM (inactive)
2. 25.2 µM (inactive)
3. > 25 µM (inactive)
